Experiment: Stability in CWE with protease inhibitor cocktail (PIC), capillary zone electrophoresis
Type: in vitro ADME, human
Settings: human, with protease inhibitor cocktail (PIC); CWE with protease inhibitor cocktail (final 1:140 v/v), 37°C, 24 h; CZE, 0 h = 100%; mean of 3 independent experiments; read-out: Remaining fraction of intact peptide after 24 h in CWE + PIC
Procedure: Debridement tissue was obtained from chronic ulcers of 15 patients with therapy resistant (arterio-venous) leg ulcers, according to procedures described earlier. […] Total protein content of the supernatant was measured using the BioRad Protein Assay (BioRad Laboratories, Hercules, California, USA) essentially as described by the supplier. […]
Where no end group is shown, it is not given here.
OUTCOME MEASURE: remaining at 24 h, 0.5 mg/ml (%)

Exercise: Requested read-out: remaining at 24 h, 0.5 mg/ml. Entry: cyclo(DNLPETGGDSHEKRHHGYRRKFHEKHHSHREFPFYGDYGSNYLY) [cHst1]
Key: 74

Exercise: Give the measured remaining at 24 h, 0.5 mg/ml of SHREFPFYGDYGS [mad-Hst1] .
Key: 87

Exercise: Suppose we examine the substance RKFHEKHHSHREFPFYGDYGSNYLYDN [Hst2] ; what remaining at 24 h, 0.5 mg/ml value has been reported?
Key: 78

Exercise: For the substance shown here, DSHEKRHHGYRRKFHEKHHSHREFPFYGDYGSNYLYDN [Hst1] , give the reported remaining at 24 h, 0.5 mg/ml.
Key: 72

----------
Test: Stability in CWE with protease inhibitor cocktail (PIC), capillary zone electrophoresis
Format: in vitro ADME, human
Settings: 1 mg/ml in PBS mixed 1:1 with CWE (1 mg/ml protein, pool of 5 donors) in PBS containing PIC (final 1:140 v/v), 37°C, 2 h; CZE, ratio to imidazole, 0 h = 100%; experiment 1 of 3
Where no end group is shown, it is not given here.
OUTCOME MEASURE: Percentage intact, CWE + PIC 2h (%)

Exercise: Which value of Percentage intact, CWE + PIC 2h has been reported for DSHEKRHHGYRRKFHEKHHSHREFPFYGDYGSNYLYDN [Hst1] in the records?
Key: 91.8564

Exercise: Dear colleague, I am looking for the recorded Percentage intact, CWE + PIC 2h of the following substance: SHREFPFYGDYGS [mad-Hst1]
Key: 100

Exercise: I am curious: what Percentage intact, CWE + PIC 2h value has been reported for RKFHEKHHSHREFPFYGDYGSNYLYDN [Hst2] ?
Key: 93.4426

Exercise: // query Percentage intact, CWE + PIC 2h value for entry cyclo(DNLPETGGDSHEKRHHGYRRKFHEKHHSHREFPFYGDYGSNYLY) [cHst1]
Key: 89.1635

----------
Assay: Stability in chronic wound extracts (CWE), capillary zone electrophoresis
Assay type: in vitro ADME, human
Conditions: 1 mg/ml in PBS mixed 1:1 with CWE (1 mg/ml protein, pool of 5 donors) in PBS, 37°C, 24 h; CZE, UV 200 nm, ratio to imidazole, 0 h = 100%; experiment 2 of 3
Where no end group is shown, it is not given here.
OUTCOME MEASURE: Percentage intact, CWE 24h (%)

Exercise: Look up Percentage intact, CWE 24h for this substance: cyclo(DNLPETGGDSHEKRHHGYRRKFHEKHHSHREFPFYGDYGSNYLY) [cHst1]
Key: 58.7294

Exercise: Returns the measured Percentage intact, CWE 24h for the input substance. Input: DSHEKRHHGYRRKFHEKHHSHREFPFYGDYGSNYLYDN [Hst1]
Key: 7.881

(1) SHREFPFYGDYGS [mad-Hst1]
(2) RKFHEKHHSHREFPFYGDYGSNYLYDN [Hst2]
Exercise: # min-compare on Percentage intact, CWE 24h between 1 and 2 Mark your answer with the label of the selected entry.
Key: 2

Cited source: paper PMC4809600
